Entries annotated with measured protein stability index
experiment: protein stability index of a GFP-peptide fusion (yeast GPS) (PSI 1-4); higher = more stable; sorted into four equal gates, so the index is relative within each strain; conditions: doa10∆

Recorded results for 5 sequences are shown here.
Ask: Recorded protein stability index for IPMDFIRNVLVTVDQYV [SSN2] , please?
Result: 1.13

Ask: // query: NNRMGSYDCTGVNELAP [POP1]
Result: 2.63

Ask: // query: LERTAIELKTDWVRFLA [RPN1]
Result: 1.58

Ask: // query: IDKLSDVVMKATEPQMV [PRP8]
Result: 2.38

Ask: // query: LHANGASFFFMVMFMHM [COB]
Result: 1.75

Moving on to the next sequence.
Ask: Recorded protein stability index for ARYNWICDPVHKHREAR [RPL15A] , please?
Result: 3.51

* * *

experiment: protein stability index of a GFP-peptide fusion (yeast GPS) (PSI 1-4); higher = more stable; sorted into four equal gates, so the index is relative within each strain; settings: doa10∆
quantity.measured: protein stability index

Recorded results for 2 sequences are shown here.
Ask: Recorded protein stability index for LSEIESLDEILLPANLL [SRP68] , please?
Result: 3.14

Ask: // query: PGSRASSRFIKGGSLYG [RPN2]
Result: 2.19

Moving on to the next sequence.
Ask: Recorded protein stability index for SAIDEEIEELIDSINGP [SMC3] , please?
Result: 3.29

* * *

test: protein stability index of a GFP-peptide fusion (yeast GPS) (PSI 1-4); higher = more stable; sorted into four equal gates, so the index is relative within each strain; settings: ubr1∆
Entries annotated with measured protein stability index

Recorded results for 5 sequences are shown here.
Ask: Recorded protein stability index for EIGILDHVDGSSEFVSQ [RRP46] , please?
Result: 2.5

Ask: // query: LIESLNTIRQNVTSSGD [YML103C/NUP188]
Result: 1.21

Ask: // query: YEDSGSTYKHDRGIANI [SRB4]
Result: 3.36

Ask: // query: TQATSEDGTSASFQIVE [RPC19]
Result: 3.12

Ask: // query: ENNTDSARKELEQKIHE [SMC1]
Result: 3.01

Others:
Ask: Recorded protein stability index for FDTVSNKLFTEPIKLEP [YMR129W/POM152] , please?
Result: 2.91

Ask: // query: MMMQQQLKNVQLDSYLV [MED2]
Result: 2.17

Ask: // query: TNLSGGEKTLSSLALVF [SMC4]
Result: 3.37

Ask: // query: DLALKMGVPIYGIVAMA [FAS2]
Result: 1.18

* * *

test: protein stability index of a GFP-peptide fusion (yeast GPS) (PSI 1-4); higher = more stable; sorted into four equal gates, so the index is relative within each strain; settings: doa10∆
Entries annotated with measured protein stability index
Kindly provide the number alone.

Recorded results for 3 sequences are shown here.
Ask: Recorded protein stability index for RAGVCEYNEDSRLCTPI [RPN13] , please?
Result: 2.29

Ask: // query: DYTLQDIICEDSTLILE [RPB2]
Result: 2.83

Ask: // query: EMLEENFPEASKLSEHL [YCG1]
Result: 2.55

Moving on to the next sequence.
Ask: Recorded protein stability index for TAGNWVASQTVKKVIEI [PRE2] , please?
Result: 3.18

* * *

assay: protein stability index of a GFP-peptide fusion (yeast GPS) (PSI 1-4); higher = more stable; sorted into four equal gates, so the index is relative within each strain; conditions: ubr1∆
Short version: protein stability index at least 3 is rule met, less is rule not met.

Answered cases to consult:
Ask: Test whether the sequence KNKKIEVYTKTIEVLDE [POP7] records protein stability index of 3 or higher.
Result: rule not met

Ask: // query: VRSANEDGTFSVLYPDE [RRP43]
Result: rule met

Ask: // query: ENDEEFYKNKYSSKPYK [RPN2]
Result: rule not met

Consider now this further sequence.
Ask: Test whether the sequence SYEVEHVIQIPLNKPLL [TAF14] records protein stability index of 3 or higher.
Result: rule not met

* * *

assay: protein stability index of a GFP-peptide fusion (yeast GPS) (PSI 1-4); higher = more stable; sorted into four equal gates, so the index is relative within each strain; conditions: san1∆
quantity.measured: protein stability index
Kindly provide the number alone.

Recorded results for 5 sequences are shown here.
Ask: Recorded protein stability index for EDEDEDDETPSCEVEEI [SNU114] , please?
Result: 2.99

Ask: // query: EQNHLDNNYNTAETNNK [YDL088C/ASM4]
Result: 3.02

Ask: // query: EEFAYVDPARRQILFKY [MED6]
Result: 2.02

Ask: // query: CDDESGDNEYITLRTSG [MCD1]
Result: 3.04

Ask: // query: QDISSSTRVEFEKLYSD [FAS2]
Result: 3.27

Moving on to the next sequence.
Ask: Recorded protein stability index for TNNMEKIIEDLRQKHEF [SMC2] , please?
Result: 3.13

* * *

assay: protein stability index of a GFP-peptide fusion (yeast GPS) (PSI 1-4); higher = more stable; sorted into four equal gates, so the index is relative within each strain; settings: san1∆
Short version: protein stability index at least 2 is y, less is n.

Ask: Test whether the sequence DKLTRVHDKIWCCRSGS [PRE3] records protein stability index of 2 or higher.
Result: y

Ask: // query: TVLVIDNSEYSRNGDFP [RPN10]
Result: n

Ask: // query: MKMDKSPTESYSDIGGL [RPT2]
Result: y

Ask: // query: KGYVFKISGGNDKQGFP [RPS6A]
Result: y

Ask: // query: HHSWSQSDLEIITQYVF [ARP9]
Result: y

Ask: // query: KNIQSKDSYINANTIET [FAS2]
Result: y

Ask: // query: PAWRVWLNFLRGTIPLL [PRP8]
Result: n

Ask: // query: KEVIELPVKHPELFESL [RPT6]
Result: y

* * *

Entries annotated with measured protein stability index
experiment: protein stability index of a GFP-peptide fusion (yeast GPS) (PSI 1-4); higher = more stable; sorted into four equal gates, so the index is relative within each strain; settings: pdr5∆
Kindly provide the number alone.

Recorded results for 3 sequences are shown here.
Ask: Recorded protein stability index for GIVSVSDPQMKVFDTLT [RPN1] , please?
Result: 2.93

Ask: // query: ASLKIKNATDLQQAKLR [SMC3]
Result: 2.96

Ask: // query: NPIIENNVDNKYKSGGK [SSN2]
Result: 3.01

Others:
Ask: Recorded protein stability index for QLETLTGSIRHRLKLCK [CSE2] , please?
Result: 3.05

Ask: // query: IFTDAGRVYRPLFIVED [RPB2]
Result: 2.51

Ask: // query: KSICFENCLNNDPEILK [SWI1]
Result: 2.69

Ask: // query: FFNGKALNNAIPGGPKF [PRP8]
Result: 3.02

Ask: // query: MVRLKSRYILFEIIFPP [POP5]
Result: 1.42

Ask: // query: KIEFPLPSEDSRAQILQ [RPT5]
Result: 3.18

Ask: // query: KVKNQGADVTNTTQDNG [YCS4]
Result: 3.19

* * *

test: protein stability index of a GFP-peptide fusion (yeast GPS) (PSI 1-4); higher = more stable; sorted into four equal gates, so the index is relative within each strain; conditions: pdr5∆
Entries annotated with measured protein stability index

Recorded results for 4 sequences are shown here.
Ask: Recorded protein stability index for TSKSLVKRYRLAPTQLS [SIN4] , please?
Result: 2.26

Ask: // query: RQFVSNVRSVIRSSRSR [RPP1]
Result: 3.08

Ask: // query: IDLDNDEDDDEDVTDQE [DLS1]
Result: 2.89

Ask: // query: LYGLNLTLRKAKAPSGL [FAS1]
Result: 2.17

Moving on to the next sequence.
Ask: Recorded protein stability index for IKVDGAVGNLGNAIEVT [RPL22B] , please?
Result: 2.4

* * *

Entries annotated with measured protein stability index
experiment: protein stability index of a GFP-peptide fusion (yeast GPS) (PSI 1-4); higher = more stable; sorted into four equal gates, so the index is relative within each strain; conditions: pdr5∆
Kindly provide the number alone.

Ask: Recorded protein stability index for KGRSYAYFMVGAMGLLS [RIP1] , please?
Result: 2.82

Ask: // query: FTNVPLNLEQVTLNKYC [YJL039C/NUP192]
Result: 1.99

Ask: // query: FIKVVNYNHLLPTRYTL [RPL27A]
Result: 2.25

Ask: // query: FKVRTNLNDKFGIYILT [MED1]
Result: 1.87

* * *

Entries annotated with measured protein stability index
assay: protein stability index of a GFP-peptide fusion (yeast GPS) (PSI 1-4); higher = more stable; sorted into four equal gates, so the index is relative within each strain; conditions: ubr1∆
Kindly provide the number alone.

Recorded results for 5 sequences are shown here.
Ask: Recorded protein stability index for SHLVVPYCPIASITGTG [YMR129W/POM152] , please?
Result: 1.36

Ask: // query: NLFPLKPKMLPIPSKPT [SRP68]
Result: 2.61

Ask: // query: FNVPVVSKQLGNGLVDE [YAR002W/NUP60]
Result: 2.99

Ask: // query: ATIRETYEIICDQTKSV [RRP43]
Result: 2.98

Ask: // query: TNVQRIAAYIRRHRNPD [SMC1]
Result: 3.04

Moving on to the next sequence.
Ask: Recorded protein stability index for RVKDIHLRKLLDGELDF [RET1] , please?
Result: 3.02

Value source: the supplement of paper PMC9732359
